The entries below come with measured EC50 values attached.
target-or-system: Elastase from porcine pancreas (Sus scrofa)
Construct: purchased Sigma-Aldrich; host or cells: porcine pancreas (tissue-derived commercial powder)
Sequence (P00772 27-266): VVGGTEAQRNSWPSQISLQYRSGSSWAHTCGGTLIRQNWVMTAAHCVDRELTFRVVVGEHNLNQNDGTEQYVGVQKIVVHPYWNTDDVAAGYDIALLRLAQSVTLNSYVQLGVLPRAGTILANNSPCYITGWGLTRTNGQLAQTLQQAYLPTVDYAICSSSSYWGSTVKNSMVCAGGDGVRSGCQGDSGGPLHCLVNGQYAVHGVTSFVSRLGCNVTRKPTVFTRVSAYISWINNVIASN
protocol-summary: Elastase inhibition assay, spectrophotometric (N-succinyl-Ala-Ala-Ala-p-nitroanilide, 405 nm)
Format: biochemical
condition-description: IL-APIs; aqueous solutions, 37 °C, 10 min, substrate 100 µM, duplicate; read-out: EC50 (µM) ± SD

compound	target-or-system	EC50
CCCC[P+](C)(CCCC)CCCC [Tributylmethylphosphonium salicylate]	Elastase from porcine pancreas (Sus scrofa)	> 200 µM
CC(C)(C)CC(C)(C)c1ccc(OCCOCC[N+](C)(C)Cc2ccccc2)cc1.O=S(=O)([N-]S(=O)(=O)C(F)(F)F)C(F)(F)F [Benzethonium bistriflimide]	Elastase from porcine pancreas (Sus scrofa)	> 1000 µM
CCCCCCCCCCCCCC[P+](CCCCCC)(CCCCCC)CCCCCC [Trihexyltetradecyphosphonium chloride]	Elastase from porcine pancreas (Sus scrofa)	> 100 µM
O=S(=O)(NS(=O)(=O)C(F)(F)F)C(F)(F)F [Lithium bistriflimide]	Elastase from porcine pancreas (Sus scrofa)	209 µM
CCCCC(CC)COC(=O)CC(C(=O)OCC(CC)CCCC)S(=O)(=O)[O-].CCCCCCCCCCCCCC[P+](CCCCCC)(CCCCCC)CCCCCC [Trihexyltetradecylphosphonium docusate]	Elastase from porcine pancreas (Sus scrofa)	> 700 µM
